This listing pairs compounds with measured IC50.
Test system: PDC 899932-113-R3-J6 complex spheroid viability
assay-summary: Anticancer human tumor 899932-113-R3-J6-PDC patient-derived melanoma cell line growth inhibition [RAS]
measurement-context: curve of first compound; second compound 0.1 µM

| compound | IC50 |
| --- | --- |
| CC(=O)OC12COC1CC(O)C1(C)C(=O)C(O)C3=C(C)C(OC(=O)C(O)C(NC(=O)OC(C)(C)C)c4ccccc4)CC(O)(C(OC(=O)c4ccccc4)C21)C3(C)C (stereo not drawn) + C=CC(=O)N1CCN(c2nc(OCC3CCCN3C)nc3c(F)c(-c4nc(N)cc(C)c4C(F)(F)F)c(Cl)cc23)C(C)C1 | < 0.0316 µM |
| Cc1nc(N2CCC3(CC2)COC(C)C3N)c(CO)nc1Sc1ccnc(N)c1Cl (stereo not drawn) + C=CC(=O)N1CCN(c2nc(OCC3CCCN3C)nc3c(F)c(-c4nc(N)cc(C)c4C(F)(F)F)c(Cl)cc23)C(C)C1 | > 10 µM |
| C=CC(=O)Nc1cc(Nc2nccc(-c3cn(C)c4ccccc34)n2)c(OC)cc1N(C)CCN(C)C + C=CC(=O)N1CCN(c2nc(OCC3CCCN3C)nc3c(F)c(-c4nc(N)cc(C)c4C(F)(F)F)c(Cl)cc23)C(C)C1 | > 1 µM |

Where do the numbers come from? From PubChem BioAssay AID2060895.
